system: HCT-116 colon; assay: NCI tumour cell line growth inhibition, 48 h
readout-type: TGI

Worked examples, 3 compounds total:
> print(dat)
                                   compound   assay.target   reading
1  CC(C)c1cc2c(c(O)c1O)[C@@]1(C)CCCC(C)(C)C1=C(O)C2  HCT-116 colon   > 50 µM
2       CN=c1ss/c(=N\C(=S)N(C)C)n1-c1ccccc1  HCT-116 colon  > 100 µM
3  Cc1nc(-c2nc(C)c(C(=O)/C=C/c3ccc([N+](=O)[O-])cc3)s2)sc1C(=O)/C=C/c1ccc([N+](=O)[O-])cc1  HCT-116 colon  > 100 µM

// TGI (HCT-116 colon) for c1ccc(Cc2cc(-c3ccccc3)n[nH]2)cc1 = 88.9 µM

// TGI (HCT-116 colon) for C[C@H]1CCC/C=C/[C@@H]2C[C@H](O)C[C@H]2[C@H](O)[C@@H](S(=O)C[C@@H](N)C(=O)O)CC(=O)O1 (stereo partly drawn) = 1.69 µM

// TGI (HCT-116 colon) for Oc1c(I)cc(I)cc1CNCCN(Cc1ccccn1)Cc1ccccn1 = 2.61 µM

// TGI (HCT-116 colon) for CS(=O)(=O)CCN(CC#N)Cc1ccc(-c2ccc3ncnc(Nc4ccc(OCc5cccc(F)c5)c(Cl)c4)c3c2)o1 = > 25 µM

// TGI (HCT-116 colon) for C=CCN1CN(C2CCCCC2)CSC1=S = 25.1 µM

// TGI (HCT-116 colon) for N#CSCc1nc2ccc(Cl)cc2c(-c2ccccc2)[n+]1[O-] = 39.7 µM

// TGI (HCT-116 colon) for O=C(NCCCN1CCC(N2CCCCC2)CC1)C1=Cc2cc(Br)ccc2OC1 = 21.8 µM

====

TGI values, listed per item
test system: NCI-H226 lung; test: NCI tumour cell line growth inhibition, 48 h

Worked examples, 2 molecules total:
> print(dat)
                                   molecule   assay.target    reading
1  CC(C)(Oc1ccc(Cl)cc1)C(=O)N(C(=O)N1CCN(c2ccccc2)CC1)c1ccccc1  NCI-H226 lung   > 100 µM
2  CN1c2ccc(O)c(O)c2-c2cc(O)cc3c2C1CCC3 (stereo not drawn)  NCI-H226 lung  > 60.2 µM

Now consider the entry below.
Value of TGI reported for the molecule COc1cccc2c(=O)c3c(n(C)c12)OC(C(C)C)C3 (stereo not drawn) is > 100 µM

====

test system: U251 CNS; assay: NCI tumour cell line growth inhibition, 48 h
TGI values, listed per item

Worked examples, 3 compounds total:
> print(dat)
                                   compound   reading
1  N#CSCc1nc2ccc(Cl)cc2c(-c2ccccc2)[n+]1[O-]   80.6 µM
2  CCOc1ccccc1N1C(=O)C(=O)C(c2nc3ccccc3s2)C(=O)C1=O  > 100 µM
3  CC(C)(C)OC(=O)NC(Cc1ccc(OCc2ccccc2)cn1)C(=O)N1CCCC1 (stereo unspecified)  > 100 µM

Value of TGI reported for the compound Nc1nc(Cl)nc(NCc2ccccc2)n1 is > 100 µM

Value of TGI reported for the compound COc1ccc(C(CC(C)=O)c2c(O)c3ccccc3oc2=O)cc1OC (stereo unspecified) is > 100 µM

Value of TGI reported for the compound CCOCc1cc(=O)c2cc3c(cc2o1)OC(C)(C)CC3 is > 100 µM

====

TGI values, listed per item
test system: IGROV1 ovarian; assay: NCI tumour cell line growth inhibition, 48 h

> print(dat)
                                   compound    assay.target  readout.type   reading
1  CC(C)(C)C(=O)C(C(=O)c1ccccc1)C(=O)C(C)(C)C  IGROV1 ovarian           TGI  > 100 µM
2  CC(=O)N1C(Nc2ccccc2)CCN1c1ccccc1 (stereo not drawn)  IGROV1 ovarian           TGI   > 10 µM

// TGI (IGROV1 ovarian) for COc1ccc(C(=O)NCCC2=CCCCC2)cc1 = > 100 µM

====

tested on: OVCAR-4 ovarian; experiment: NCI tumour cell line growth inhibition, 48 h
readout-type: TGI

Worked examples, 5 compounds total:
compound	TGI
Cn1cc(C2=C(Oc3ccccc3)C(=O)NC2=O)c2ccccc21	> 25 µM
[C-]#[O+].[C-]#[O+].[C-]#[O+].[C-]#[O+].[O-]C(c1ccccc1[PH+]1OC(C(F)(F)F)(C(F)(F)F)c2ccccc21)(C(F)(F)F)C(F)(F)F.[Re] (centres undefined)	8.53 µM
NC(N)=N/N=C\c1ccc(C2CCNCC2)cc1	> 100 µM
C=CCN1C(N)=C(C#N)C(C#N)(C#N)C1CCC (centres undefined)	> 100 µM
COC(=O)C1(C(=O)OC)CC(=O)c2c(OC(=O)c3cccc(OC)c3C#N)ccc(OC(=O)c3cccc(OC)c3C#N)c2C1	> 100 µM

Value of TGI reported for the compound CS(=O)(=O)CCN(CC#N)Cc1ccc(-c2ccc3ncnc(Nc4ccc(OCc5cccc(F)c5)c(Cl)c4)c3c2)o1 is > 25 µM

Value of TGI reported for the compound O=C(NCc1ccccc1)c1cc2ccc(O)c(O)c2cn1 is 30.3 µM

Value of TGI reported for the compound NC(Cc1ccc(O)c(O)c1)P(=O)(O)O (centres undefined) is > 100 µM

Value of TGI reported for the compound N#Cc1c(-c2ccc(Cl)cc2)cc(-c2ccc(Nc3ccnc4cc(Cl)ccc34)cc2)nc1N is > 100 µM

====

tested on: ACHN renal; assay: NCI tumour cell line growth inhibition, 48 h
TGI values, listed per item

Worked examples, 2 compounds total:
> print(dat)
                               smiles.entry  readout.type   reading
1  C/C(=C1\SC(=NCc2cccs2)NC1=O)c1ccc2ncccc2c1           TGI   > 25 µM
2  c1ccc(-c2[o+]c(-c3ccccc3)c(-c3ccccc3)c(-c3ccccc3)c2-c2ccccc2)cc1           TGI  > 100 µM

Now consider the entry below.
// TGI (ACHN renal) for CCn1c(-c2nonc2N)nc2c(C#CC(C)(C)O)nc(CN3CCCC3)cc21 = > 25 µM

====

system: IGROV1 ovarian; assay: NCI tumour cell line growth inhibition, 48 h
readout-type: TGI

Worked examples, 3 compounds total:
> print(dat)
                                   compound   reading
1  Cc1cc(C)c2c(c1)CC1(Cc3c(ccc(C)c3C)C1=O)C2=O (stereo unspecified)  > 100 µM
2    COc1ccc(C2C(C#N)=C(O)NC(O)=C2C#N)cc1OC  > 100 µM
3  CC1=CC(O)(c2ccccc2)C(N2CCOCC2)N1O (stereo unspecified)  > 100 µM

// TGI (IGROV1 ovarian) for O=C1Nc2ccccc2C12CCCC2 = > 100 µM

// TGI (IGROV1 ovarian) for c1ccc(-c2[o+]c(-c3ccccc3)c(-c3ccccc3)c(-c3ccccc3)c2-c2ccccc2)cc1 = > 100 µM

// TGI (IGROV1 ovarian) for CCOCc1cc(=O)c2cc3c(cc2o1)OC(C)(C)CC3 = > 100 µM

// TGI (IGROV1 ovarian) for Cc1cc(Nc2nc(-c3ccc(F)cc3)nc3ccccc23)n[nH]1 = 9.17 µM

// TGI (IGROV1 ovarian) for CNC(=O)Oc1ccc(C(=S)Nc2ccc(Br)cc2)cc1 = 18.7 µM

// TGI (IGROV1 ovarian) for Cn1ccnc1Sc1ccc(/C=N\NC(=O)c2cccc(F)c2)cc1[N+](=O)[O-] = 53 µM

// TGI (IGROV1 ovarian) for O=C(NCCCN1CCC(N2CCCCC2)CC1)C1=Cc2cc(Br)ccc2OC1 = 39.4 µM

// TGI (IGROV1 ovarian) for O=S(=O)(O)c1cc(N=Nc2cccc3ccccc23)c(O)c2ncccc12 = > 100 µM

====

tested on: OVCAR-8 ovarian; test: NCI tumour cell line growth inhibition, 48 h
TGI values, listed per item

Worked examples, 5 compounds total:
compound	readout-type	reading
O=C(CC(=O)N1N=C(N2c3ccccc3Sc3ccccc32)CC1c1ccccc1)Nc1ccccc1Cl (configuration not stated)	TGI	> 100 µM
CS(=O)(=O)CCN(CC#N)Cc1ccc(-c2ccc3ncnc(Nc4ccc(OCc5cccc(F)c5)c(Cl)c4)c3c2)o1	TGI	> 25 µM
CC1=CC(O)(c2ccccc2)C(N2CCOCC2)N1O (configuration not stated)	TGI	> 100 µM
CCNCC(O)COc1ccc2c(c1)[n+]([O-])nc(N)[n+]2[O-] (configuration not stated)	TGI	> 100 µM
C=CCCCCCCCC(O)C1C[C@H](O)C(CCCCC)O1 (some centres not stated)	TGI	40.2 µM

// TGI (OVCAR-8 ovarian) for COc1cccc(/C(COc2ccc3c(c2)oc(=O)c2ccccc23)=N\O)c1 = 54 µM

// TGI (OVCAR-8 ovarian) for COc1ccc2c(C)cc(C)nc2n1 = > 100 µM

// TGI (OVCAR-8 ovarian) for COc1ccc(C2SCc3nc4ccccc4n32)cc1 (configuration not stated) = > 100 µM

// TGI (OVCAR-8 ovarian) for Cc1ncc(C(=O)Nc2ccc(CN3CCN(C)CC3)c(C(F)(F)F)c2)cc1C#Cc1c(N)ncc2ccc(F)cc12 = 2.41 µM

Value source: PubChem BioAssay (NCI)
